Values were extracted from patent US7820865B2.

# reported melting point; entries follow

Known melting point results, listed for orientation:
COMPOUND: CCC(C)(C)c1cc(C(=O)COc2ccc(C=O)cc2OC)cc(C(C)(C)CC)c1O
melting point: 106 to 107 °C
//
COMPOUND: CCOCC(=O)c1cc(C(C)C)c(O)c(C(C)C)c1
melting point: 97 to 98 °C
//
COMPOUND: COc1cc(C=O)ccc1OCC(=O)c1cc(C2CCCCC2)c(O)c(C2CCCCC2)c1
melting point: 163 to 164 °C

Prompt line: Can you look up the measured melting point of "CC(C)(C)c1cc(C(=O)CI)cc(C(C)(C)C)c1O" for me?
Response line: 88 to 89 °C

Prompt line: Can you look up the measured melting point of CCOC(C)C(=O)c1cc(C(C)(C)C)c(O)c(C(C)(C)C)c1 (centres unmarked) for me?
Response line: 64 °C

Prompt line: Can you look up the measured melting point of "Cc1ccc(OCC(=O)c2cc(C(C)C)c(O)c(C(C)C)c2)cc1" for me?
Response line: 124 to 125 °C

Prompt line: Can you look up the measured melting point of "CC(C)=CCC/C(C)=C/COCC(=O)c1cc(C(C)C)c(O)c(C(C)C)c1" for me?
Response line: 70 to 71 °C

Prompt line: Can you look up the measured melting point of "O=C(CI)c1cc(C2CCCCC2)c(O)c(C2CCCCC2)c1" for me?
Response line: 183 to 185 °C

Prompt line: Can you look up the measured melting point of "CC(C)c1cc(C(=O)CO[C@@H]2C[C@H](C)CC[C@H]2C(C)C)cc(C(C)C)c1O" for me?
Response line: 83 to 84 °C

Prompt line: Can you look up the measured melting point of "CC(C)=CCC/C(C)=C/COCC(=O)c1cc(C(C)(C)C)c(O)c(C(C)(C)C)c1" for me?
Response line: 50 °C

Prompt line: Can you look up the measured melting point of "CC(C)(C)c1cc(C(=O)COc2ccc(Cl)cc2Oc2ccc(Cl)cc2Cl)cc(C(C)(C)C)c1O" for me?
Response line: 111 to 114 °C

Prompt line: Can you look up the measured melting point of "COc1cc(C=O)ccc1OCC(=O)c1cc(C(C)(C)C)c(O)c(C(C)(C)C)c1" for me?
Response line: 99 to 100 °C

Prompt line: Can you look up the measured melting point of CC(C)=CCCC(C)CCOCC(=O)c1cc(C(C)C)c(O)c(C(C)C)c1 (centres unmarked) for me?
Response line: 37 to 39 °C

Prompt line: Can you look up the measured melting point of "CC(C)c1cc(C(=O)CI)cc(C(C)C)c1O" for me?
Response line: 127 to 128 °C
